Provenance of the data: PubChem BioAssay (EPA / NIEHS)

Test: Tanguay_ZF_120hpf_AXIS_legacy: (Legacy) Oregon State University Tanguay Lab 120 Hour Post-fertilization zebrafish Assay for Body Axis Malformation (AID 2283635)
Records with an inconclusive call do not appear. The source made the active and inactive calls. The calls were made as follows: active = hit-call score of the fitted dose curve at least 0.9, where 1 is the maximum; inconclusive = response in the unintended direction; inactive = score below 0.9.
Possible outcomes: active, inactive

# molecule, label_class
measured = [
    ("C1N2CN3CN1CN(C2)C3", "inactive"),
    ("CC(C)=CCCC(C)CCO (configuration not stated)", "inactive"),
    ("Nc1ccc(Nc2ccccc2)cc1", "active"),
    ("CC(C)CCCCCCCOC(=O)CCCCC(=O)OCCCCCCCC(C)C", "inactive"),
    ("O=C(CCCCCCCCc1cccnc1)N1CCC(C=C(c2ccccc2)c2ccccc2)CC1", "inactive"),
    ("CC(C)CCO", "inactive"),
    ("O=C(O)c1cccc(N(Cc2cccnc2)c2ccc(OC(F)F)c(OC(F)F)c2)c1", "inactive"),
]

###

Read-out: X-box binding protein 1 (XBP1), XBP1 (gene 7494)
Experiment: LTEA_HepaRG_XBP1: Life Technologies and Expression Analysis (LTEA) Assay for X-box binding protein 1 (XBP1) using HepaRG (AID 2283540)
Settings: mRNA level, 48 h; actives raise or lower the signal
Activity calls are given as the source filed them. Rule for the calls: active = hit-call score of the fitted dose curve at least 0.9, where 1 is the maximum; inactive = score below 0.9.
Possible outcomes: active, inactive

# compound, label_class
records = [
    ("CC(C)=CCC/C(C)=C\\CO", "inactive"),
    ("COc1cccc(-c2ccc(/C=C\\CN3CCCCCC3)cc2Cl)c1", "inactive"),
    ("CC(=O)OC[C@H]1O[C@@](COC(C)=O)(O[C@H]2O[C@H](COC(C)=O)[C@@H](OC(C)=O)[C@H](OC(C)=O)[C@H]2OC(C)=O)[C@@H](OC(C)=O)[C@@H]1OC(C)=O", "inactive"),
    ("COCCOCCOCCOC", "inactive"),
    ("O=C1OC(=O)C2C3C=CC(C3)C12 (stereo unspecified)", "inactive"),
    ("CCc1cc(SCc2sc(-c3ccc(C(F)(F)F)cc3)nc2CN2CCN(c3ccc(OC)cc3)CC2)ccc1OCC(=O)O", "active"),
    ("CC1(C)C(=O)N(Br)C(=O)N1Br", "inactive"),
    ("CCNc1ccccc1", "inactive"),
    ("CCCC(=O)OCC", "inactive"),
    ("CN(C)c1ccc(Cc2ccc(N(C)C)cc2)cc1", "inactive"),
    ("Cc1ccc(N)cc1O", "inactive"),
    ("Cn1c(=O)cc(Oc2ccc(F)cc2F)c2cnc(NCC(C)(C)O)nc21", "inactive"),
    ("COc1ccc(/C=C/S(=O)(=O)NC(=O)c2ccc(C)cc2Cl)cc1", "inactive"),
    ("CC(C)(O)c1coc(S(=O)(=O)NC(=O)Nc2c3c(cc4c2CCC4)CCC3)c1", "inactive"),
    ("O=c1[nH]c2ccc(S(=O)CCN3CCC(Cc4ccc(F)cc4)CC3)cc2o1 (stereo unspecified)", "inactive"),
    ("C=CCCCCCCCCC(=O)O", "inactive"),
    ("COCCOc1cc2cc(C(=O)NC3CCN(C(C)C)CC3)n(CC(=O)Nc3ccc(Cl)cn3)c2cn1", "active"),
    ("CCOCCOCCOCCO", "inactive"),
    ("CCCN(C1CCN(C(=O)C2CCNCC2)CC1)[C@@H]1CCc2ccc(OC)cc2C1", "active"),
    ("O=C(CCCCCCCCc1cccnc1)N1CCC(C=C(c2ccccc2)c2ccccc2)CC1", "active"),
    ("NC(=O)NO", "inactive"),
    ("COC(=O)c1ccccc1O", "inactive"),
    ("COC(=O)CC(=O)OC", "inactive"),
    ("Oc1ccc2c(c1)-c1ccccc1C2", "inactive"),
    ("CN(C)c1ccc(N=NS(=O)(=O)O)cc1", "inactive"),
    ("O=C1CCCCCN1", "inactive"),
]
